Measured values drawn from paper PMC5540273 for this set.

Assignment: determine reported %Inh for the given compounds.
Tested on: CLK2
Details: concentration: 1 μM, replicates: in singlicate; n = 1;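 further: KINOMEscan kinase panel screen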
# number only, unit % dropped from output

What does the data say about its %Inh? Entry: `CC(=O)Nc1nc2cnc(Nc3cc(NC(=O)c4cccc(CCC#N)c4)ccc3C)nc2s1`
3

What does the data say about its %Inh? Entry: `Cn1ccc2ncnc(Oc3ccc(NC(=O)Nc4ccccc4)cc3)c21`
0

What does the data say about its %Inh? Entry: `O=S(=O)(c1ccc(-c2ccnc3[nH]ccc23)cc1)N1CCCC1`
45

What does the data say about its %Inh? Entry: `CSc1nn2c(=O)cc(N3CCOCC3)nc2n1Cc1cccc(C(F)(F)F)c1C`
0

What does the data say about its %Inh? Entry: `Nc1nc(-c2nccs2)c(-c2ccnc3ccccc23)s1`
0

====

System: CSK
Settings: concentration: 1 μM, replicates: in singlicate; n = 1
Assignment: determine reported %Inh for the given compounds.
# number only, unit % dropped from output

What does the data say about its %Inh? Entry: Fc1cc(Cl)ccc1Nc1ccnc2cc(-c3ccc(CN4CCCCC4)o3)ccc12 [GW560116]
0

What does the data say about its %Inh? Entry: Cc1ccc(NC(=O)Nc2cc(C(C)(C)C)nn2-c2ccccc2)cc1 [GSK1014915]
0

What does the data say about its %Inh? Entry: Cl.O=C(Nc1cccc(-c2nn3ncccc3c2-c2ccnc(Nc3cccnc3)n2)c1)c1c(F)cccc1F [GSK312879]
18

What does the data say about its %Inh? Entry: COc1cc(Nc2nccc(N3CCC(NC(=O)Nc4cc(C)ccc4C)C3)n2)cc(OC)c1OC (stereo not drawn) [GSK1379762]
0

What does the data say about its %Inh? Entry: Clc1cc(Cl)cc(Nc2ccnc(Nc3cc(Cl)cc(Cl)c3)n2)c1 [GSK175726]
0

What does the data say about its %Inh? Entry: Cc1ccc(C(=O)Nc2ccc(Nc3ccnc4cc(-c5ccccn5)ccc34)cc2O)cc1.Cl [GW440146]
34

What does the data say about its %Inh? Entry: COc1cccc(NC(=O)NC2CCN(c3ccnc(Nc4ccc(F)cc4)n3)C2)c1 (stereo not drawn) [GSK1379721]
6

What does the data say about its %Inh? Entry: Fc1cc(Cl)ccc1Nc1ccnc2cc(I)ccc12 [GW551191]
0

What does the data say about its %Inh? Entry: Cc1csc(-c2nc(Nc3ccncc3)c3ccccc3n2)n1 [GW869640]
3

What does the data say about its %Inh? Entry: Cc1cccc(-c2nc(Nc3ccncc3)c3ccccc3n2)n1 [GW855857]
4

What does the data say about its %Inh? Entry: `Cn1ccc2ncnc(Oc3cccc(C(=O)Nc4ccccc4)c3)c21`
14

What does the data say about its %Inh? Entry: O=C(Nc1ccc2c(c1)OCO2)NC1CCN(c2ccnc(Nc3ccc(F)cc3)n2)C1 (stereo not drawn) [GSK1379724]
1

What does the data say about its %Inh? Entry: Nc1nc(-c2nccs2)c(-c2ccnc3ccccc23)s1 [GW693542]
9

What does the data say about its %Inh? Entry: COc1ccccc1CNC(=O)c1cc(C(=O)c2ccccc2C)c[nH]1 [GSK364507]
0

What does the data say about its %Inh? Entry: Cc1nnc(-c2ccc3occ(-c4ccc(S(C)=O)cc4)c3c2)[nH]1 (stereo not drawn)
0

What does the data say about its %Inh? Entry: O=C(Nc1n[nH]c2nc(-c3nccs3)c(Br)cc12)C1CC1 [SB-742251]
0

What does the data say about its %Inh? Entry: CC1=C(C(=O)Nc2cc3cn[nH]c3cc2F)C(c2ccc(C(F)(F)F)cc2)CC(=O)N1 (stereo not drawn) [GSK429286]
0

What does the data say about its %Inh? Entry: `Fc1cccc(COc2nnc(-c3ccc4c(c3)CCO4)o2)c1`
0
